Recorded relative viability values for a group of molecules are listed next.
- Test system: HCC-78
- assayProtocol: relative viability (nuclei count vs DMSO), 5 days (fraction); higher = more cells survive
- setupConditions: first compound 0.1265 µM
Format: numeric value only, no unit, no commentary.

Sample records with relative viability:
Return reported relative viability. Input molecule: COc1cc(N2CCC(C(N)=O)CC2)ccc1Nc1nc(N)c(Cl)c(Nc2ccccc2S(=O)(=O)C(C)C)n1 [HG-5-88-01] + C[C@@H](Oc1cc(-c2cnn(C3CCNCC3)c2)cnc1N)c1c(Cl)ccc(F)c1Cl [Crizotinib] (partner 1 µM) 0.319

Return reported relative viability. Input molecule: COc1cc(N2CCC(C(N)=O)CC2)ccc1Nc1nc(N)c(Cl)c(Nc2ccccc2S(=O)(=O)C(C)C)n1 [HG-5-88-01] + C[C@]1(O)C[C@@H](c2nc(-c3ccc4ccc(-c5ccccc5)nc4c3)c3c(N)nccn32)C1 [Linsitinib] (partner 1 µM) 0.401

Return reported relative viability. Input molecule: Clc1ccc(Nc2nnc(Cc3ccncc3)c3ccccc23)cc1 [Vatalanib] + CS(=O)(=O)CCNCc1ccc(-c2ccc3ncnc(Nc4ccc(OCc5cccc(F)c5)c(Cl)c4)c3c2)o1 [Lapatinib] (partner 2 µM) 0.634

Further cases:
Return reported relative viability. Input molecule: C[C@@H]1CN(CC(=O)Nc2ccc3c(c2)Cc2cccc(-c4cc(=O)cc(N5CCOCC5)o4)c2S3)C[C@H](C)O1 + CC(=O)c1c(C)c2cnc(Nc3ccc(N4CCNCC4)cn3)nc2n(C2CCCC2)c1=O [Palbociclib] (partner 0.5 µM) 0.458
